Data provenance is ChEMBL document CHEMBL1140120.

- ASSAYED_SYSTEM: Muscarinic acetylcholine receptor M1 (Homo sapiens)
- Sequence (P11229 whole entry): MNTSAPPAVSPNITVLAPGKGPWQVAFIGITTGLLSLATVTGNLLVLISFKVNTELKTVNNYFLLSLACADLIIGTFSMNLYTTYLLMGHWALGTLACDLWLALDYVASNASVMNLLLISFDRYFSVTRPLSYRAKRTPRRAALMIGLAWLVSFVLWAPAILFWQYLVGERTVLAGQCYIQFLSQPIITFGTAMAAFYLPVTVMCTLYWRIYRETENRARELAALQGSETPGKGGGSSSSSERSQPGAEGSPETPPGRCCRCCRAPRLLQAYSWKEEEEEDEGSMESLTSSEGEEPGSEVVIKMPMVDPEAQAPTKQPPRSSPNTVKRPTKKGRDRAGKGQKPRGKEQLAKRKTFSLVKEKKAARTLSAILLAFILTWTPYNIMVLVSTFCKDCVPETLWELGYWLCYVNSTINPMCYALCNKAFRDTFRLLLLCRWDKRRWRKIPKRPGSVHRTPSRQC
- RUN_DESCRIPTION: Inhibition of human cloned muscarinic M1 expressed in CHO cells by FLIPR assay
REPORTED_PROPERTY: IC50

What IC50 value was documented for this compound, O=C(NCc1cccc(-c2cccc(CN3CCNCC3)c2)c1)c1ccc2c(c1)OCO2 ?
158 nM

====

Target chain: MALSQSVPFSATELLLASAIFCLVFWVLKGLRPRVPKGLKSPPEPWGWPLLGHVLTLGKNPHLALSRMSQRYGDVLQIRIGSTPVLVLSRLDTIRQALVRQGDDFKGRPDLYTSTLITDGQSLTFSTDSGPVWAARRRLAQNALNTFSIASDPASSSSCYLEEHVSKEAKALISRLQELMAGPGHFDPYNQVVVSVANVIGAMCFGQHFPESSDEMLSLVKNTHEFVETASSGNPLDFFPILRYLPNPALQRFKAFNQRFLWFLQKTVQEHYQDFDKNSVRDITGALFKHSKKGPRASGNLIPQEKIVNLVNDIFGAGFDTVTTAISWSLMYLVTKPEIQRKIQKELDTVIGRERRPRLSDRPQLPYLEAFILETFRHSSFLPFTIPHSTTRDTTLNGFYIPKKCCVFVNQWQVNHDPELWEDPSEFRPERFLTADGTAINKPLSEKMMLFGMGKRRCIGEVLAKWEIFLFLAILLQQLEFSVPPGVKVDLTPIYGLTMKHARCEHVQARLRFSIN
pIC50: −log10 of the molar value.
REPORTED_PROPERTY: pIC50

What pIC50 value was documented for this compound, C[C@H]1CN(Cc2cccc(-c3cc(CNC(=O)c4cccc(CC5CCNCC5)c4)ccc3F)c2)CCN1 ?
< 5.00
